system: NCI/ADR-RES; experiment: Growth inhibition of human NCI/ADR-RES cells measured after 48 hrs by SRB assay; type: functional
Listed next: entries and their corresponding GI50.
The response must be a number in nM with no trailing unit.

Example cases with answers are listed next.
[[record]]
smiles_repr = "CC(=O)OC[C@H]1O[C@@H](O[C@@H]2C=C3CC[C@@H]4[C@H]([C@@H](O)C[C@]5(C)[C@@H](c6ccc(=O)oc6)CC[C@]45O)[C@@]3(C)CC2)[C@H](OC(C)=O)[C@@H](OC(C)=O)[C@@H]1OC(C)=O"
target_desc = "NCI/ADR-RES"
readout_units = "nM"
readout_number = 283

[[record]]
smiles_repr = "C[C@]12CC[C@H]3[C@@H](CC[C@H]4C[C@@H](O)CC[C@@]43C=O)[C@@]1(O)CC[C@@H]2c1ccc(=O)oc1"
target_desc = "NCI/ADR-RES"
readout_units = "nM"
readout_number = 1490


QUERY: GI50 for "C[C@]12CC[C@H](O)C=C1CC[C@@H]1[C@@H]2[C@@H](O)C[C@]2(C)[C@@H](c3ccc(=O)oc3)CC[C@]12O" ?
RESULT: 657
